# SYSTEM: phosphorylated ERBB2 (pERBB2) (Homo sapiens)
# Construct: endogenous in cells
# Sequence (P04626 23-1255): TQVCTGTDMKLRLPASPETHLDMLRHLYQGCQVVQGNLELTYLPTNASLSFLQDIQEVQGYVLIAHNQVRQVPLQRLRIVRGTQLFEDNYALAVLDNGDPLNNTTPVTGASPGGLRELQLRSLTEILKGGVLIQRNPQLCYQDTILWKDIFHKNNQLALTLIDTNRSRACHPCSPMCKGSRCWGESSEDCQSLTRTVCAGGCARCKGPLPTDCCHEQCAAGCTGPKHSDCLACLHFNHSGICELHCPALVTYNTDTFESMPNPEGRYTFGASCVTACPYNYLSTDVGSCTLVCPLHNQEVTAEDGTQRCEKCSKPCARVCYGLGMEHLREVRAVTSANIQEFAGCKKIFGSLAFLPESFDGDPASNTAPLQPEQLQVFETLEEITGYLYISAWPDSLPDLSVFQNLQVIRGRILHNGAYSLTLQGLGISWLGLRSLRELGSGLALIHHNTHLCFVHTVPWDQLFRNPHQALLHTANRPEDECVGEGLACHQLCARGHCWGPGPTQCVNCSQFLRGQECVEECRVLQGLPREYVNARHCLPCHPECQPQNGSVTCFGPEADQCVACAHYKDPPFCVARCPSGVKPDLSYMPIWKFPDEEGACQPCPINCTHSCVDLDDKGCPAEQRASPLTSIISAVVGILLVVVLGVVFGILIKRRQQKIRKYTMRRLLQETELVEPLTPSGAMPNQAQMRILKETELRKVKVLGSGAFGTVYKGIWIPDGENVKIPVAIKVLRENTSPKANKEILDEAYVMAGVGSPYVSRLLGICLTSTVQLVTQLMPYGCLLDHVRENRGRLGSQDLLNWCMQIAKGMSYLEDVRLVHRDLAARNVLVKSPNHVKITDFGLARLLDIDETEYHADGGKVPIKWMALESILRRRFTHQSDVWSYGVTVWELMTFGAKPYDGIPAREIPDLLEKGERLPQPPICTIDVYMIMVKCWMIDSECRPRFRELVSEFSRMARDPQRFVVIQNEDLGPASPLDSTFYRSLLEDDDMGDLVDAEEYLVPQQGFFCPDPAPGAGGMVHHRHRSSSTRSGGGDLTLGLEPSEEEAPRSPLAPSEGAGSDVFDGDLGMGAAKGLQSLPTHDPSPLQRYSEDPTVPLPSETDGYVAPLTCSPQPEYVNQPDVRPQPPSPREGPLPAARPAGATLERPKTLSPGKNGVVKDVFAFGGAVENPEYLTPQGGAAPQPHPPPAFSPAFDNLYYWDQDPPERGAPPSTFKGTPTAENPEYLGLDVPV
# METHOD_DESCRIPTION: Detection of phosphorylated ERBB2 (pERBB2) by ELISA in BT-474 cells
# CONDITION_CONTEXT: four hours incubation
Structures can show the parent of a compound that is named as a salt.
Below, each entry is listed with its recorded IC50.
ENDPOINT_NAME: IC50

INSERT INTO measurements (compound, reported_result) VALUES
  ('CN(C)C/C=C1\CCN(c2cc3c(Nc4ccc(Oc5cccnc5)c(F)c4)ncnc3cn2)C1=O', '0.0428 µM'),
  ('Cc1cc(Nc2ncnc3cnc(N4CC/C(=C\CN(C)C)C4=O)cc23)ccc1Oc1ccc2c(c1)ncn2C', '0.0226 µM'),
  ('CC1CN(c2ccc3ncnc(Nc4ccc(Oc5ccn6ncnc6c5)c(F)c4)c3n2)C(=O)/C1=C/CN(C)C (single isomer, unassigned) [Example S127, Enantiomer #1]', '0.014 µM'),
  ('Cc1cc(Nc2ncnc3ccc(N4CC/C(=C\CN(C)C)C4=O)nc23)ccc1Oc1ccc2[nH]cnc2c1', '0.0103 µM'),
  ('Cc1cc(Nc2ncnc3ccc(N4CC/C(=C\CCN5CCN(C)CC5)C4=O)cc23)ccc1Oc1ccn2ncnc2c1', '0.0307 µM'),
  ('CN(C)C/C=C1\CCN(c2ccc3ncnc(Nc4ccc(Oc5ccc6c(c5)ncn6C)c(F)c4)c3n2)C1=O', '0.0189 µM'),
  ('C=C1C(=O)N(c2ccc3ncnc(Nc4ccc(Oc5ccn6ncnc6c5)c(C)c4)c3c2)C[C@H]1C', '0.012 µM'),
  ('Cc1cc(Nc2c(C#N)cnc3ccc(N4CC/C(=C\CN(C)C)C4=O)nc23)ccc1Oc1ccc2c(c1)ncn2C', '0.163 µM'),
  ('C=C1C(=O)N(c2ccc3ncnc(Nc4ccc(Oc5ccc6c(c5)ncn6C)c(C)c4)c3c2)C[C@@H]1C', '0.029 µM'),
  ('C=C1C(=O)N(c2ccc3ncnc(Nc4ccc(Oc5ccc6c(c5)ncn6C)c(C)c4)c3c2)C2CC12 (single isomer, unassigned) [Example S33, Enantiomer # 2]', '0.0249 µM'),
  ('Cc1cc(Nc2ncnc3ccc(N4CC/C(=C\C5CN(C)C5)C4=O)nc23)ccc1Oc1ccn2ncnc2c1', '0.0143 µM'),
  ('Cc1cc(Nc2ncnc3cnc(N4CC/C(=C\CCN(C)C)C4=O)cc23)ccc1Oc1ccn2ncnc2c1 [Compound 60, formate]', '0.012 µM'),
  ('CN(C)C/C=C1\CCN(c2ccc3ncnc(Nc4ccc(Oc5ccc6c(c5)ncn6C)cc4F)c3n2)C1=O', '0.0388 µM'),
  ('C=C1CCN(c2cc3c(Nc4ccc(Oc5ccn6ncnc6c5)c(C)c4)ncnc3cn2)C1=O', '0.00777 µM'),
  ('C=C1C(=O)N(c2cc3c(Nc4ccc(Oc5ccn6ncnc6c5)c(C)c4)ncnc3cn2)C2CC12 (single isomer, unassigned; enantiomer 1) [Example S40, Enantiomer # 1]', '0.0099 µM'),
  ('C=C1C(=O)N(c2ccc3ncnc(Nc4ccc(Oc5ccc6c(c5)ncn6C)c(C)c4)c3n2)C[C@H]1C', '0.0607 µM'),
  ('C=C1CCN(c2ccc3ncnc(Nc4ccc(Oc5ccc6c(c5)ncn6C)c(C)c4)c3c2)C1=O', '0.0171 µM'),
  ('CC1CN(c2cc3c(Nc4ccc(Oc5ccc6c(c5)nnn6C)c(F)c4)ncnc3cn2)C(=O)/C1=C/CN(C)C (single isomer, unassigned) [Example S117, Enantiomer #2]', '0.589 µM'),
  ('CN(C)C/C=C1\CCN(c2ccc3ncnc(Nc4ccc(Oc5ccc6c(c5)ncn6C)cc4)c3n2)C1=O', '0.0213 µM'),
  ('C=C1C(=O)N(c2ccc3ncnc(Nc4ccc(Oc5ccn6ncnc6c5)c(C)c4)c3c2)CC1CN(C)C (stereo not drawn)', '0.0123 µM'),
  ('CN(C)C/C=C1\CCN(c2ccc3ncnc(Nc4ccc(Oc5ccc6c(c5)ncn6C)c(Cl)c4)c3n2)C1=O', '0.0403 µM'),
  ('C=C1C(=O)N(c2cc3c(Nc4ccc(Oc5ccn6ncnc6c5)c(C)c4)ncnc3cn2)C[C@@H]1C', '0.0159 µM'),
  ('C=C1C(=O)N(c2ccc3ncnc(Nc4ccc(Oc5ccn6ncnc6c5)c(C)c4)c3c2)CC1COCCN(C)C (single isomer, unassigned) [Example S111, Enantiomer #1]', '0.0166 µM'),
  ('Cc1cc(Nc2ncnc3ccc(N4CC/C(=C\CCN(C)C)C4=O)cc23)ccc1Oc1ccn2ncnc2c1', '0.0117 µM'),
  ('C=C1CCCN(c2cc3c(Nc4ccc(Oc5ccc6c(c5)ncn6C)c(C)c4)ncnc3cn2)C1=O', '0.027 µM'),
  ('C=C1CCN(c2ccc3ncnc(Nc4ccc(Oc5ccc6c(c5)ncn6C)c(C)c4)c3n2)C1=O', '0.0872 µM'),
  ('C=C1CCN(c2ccc3ncnc(Nc4ccc(Oc5ccc6cncnc6c5)c(C)c4)c3c2)C1=O', '0.0801 µM');
